Listed next: entries and their corresponding inhibition.
- MEASUREMENT_TARGET: Prostaglandin G/H synthase 1 (Ovis aries)
- Sequence (whole entry): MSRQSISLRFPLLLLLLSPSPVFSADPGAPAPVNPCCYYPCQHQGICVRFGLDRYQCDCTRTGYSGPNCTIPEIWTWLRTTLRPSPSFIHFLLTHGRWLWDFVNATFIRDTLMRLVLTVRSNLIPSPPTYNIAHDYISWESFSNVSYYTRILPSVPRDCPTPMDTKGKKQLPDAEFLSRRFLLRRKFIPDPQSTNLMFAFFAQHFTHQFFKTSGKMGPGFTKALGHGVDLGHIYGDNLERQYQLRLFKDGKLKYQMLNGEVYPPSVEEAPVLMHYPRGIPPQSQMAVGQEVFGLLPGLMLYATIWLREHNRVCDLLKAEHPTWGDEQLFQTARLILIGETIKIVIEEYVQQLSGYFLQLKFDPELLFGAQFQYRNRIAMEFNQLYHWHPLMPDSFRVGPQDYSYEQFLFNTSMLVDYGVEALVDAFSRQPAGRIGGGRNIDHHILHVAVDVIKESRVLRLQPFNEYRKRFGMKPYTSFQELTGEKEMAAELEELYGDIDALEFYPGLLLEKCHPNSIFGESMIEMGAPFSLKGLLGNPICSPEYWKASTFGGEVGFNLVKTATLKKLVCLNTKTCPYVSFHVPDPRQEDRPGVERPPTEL
- ASSAY_OVERVIEW: Inhibition of ovine COX-1 assessed as decrease in prostaglandin production using arachidonic acid as substrate at 10 uM incubated with enzyme for 10 mins prior to substrate challenge by enzyme immunoassay
Respond with the bare value in %.

- SMILES_CODE: "O=C1Nc2ccccc2/C1=C/c1coc2ccccc2c1=O"
  MEASUREMENT_TARGET: "Prostaglandin G/H synthase 1 (Ovis aries)"
  UNIT_OF_MEASUREMENT: "%"
  inhibition: 51.6

Sure, the documented inhibition for `CC1=NN(c2cccc(Cl)c2)C(=O)/C1=C/c1coc2c([N+](=O)[O-])cc(F)cc2c1=O` is 27.9

Sure, the documented inhibition for `O=C1/C(=C/c2coc3ccccc3c2=O)c2ccccc2N1c1c(Cl)cccc1Cl` is 80.3

Sure, the documented inhibition for `O=C1Nc2ccccc2/C1=C/c1coc2ccc(Br)cc2c1=O` is 40.5

Sure, the documented inhibition for `O=C1/C(=C/c2coc3ccc(Br)cc3c2=O)c2ccccc2N1c1c(Cl)cccc1Cl` is 80.3

Sure, the documented inhibition for `CC(C)c1ccc2occ(/C=C3/C(=O)N(c4c(Cl)cccc4Cl)c4ccccc43)c(=O)c2c1` is 64.6

###

Listed next: entries and their corresponding inhibition.
- System: Solanum tuberosum
- ASSAY_OVERVIEW: Inhibition of potato 5-LOX assessed as decrease in leukotriene production using arachidonic acid as substrate at 0.1 uM by enzyme immunoassay
The answer consists of two parts: a number and, after it, its unit.

- SMILES_CODE: "O=C1/C(=C/c2coc3ccccc3c2=O)c2ccccc2N1c1c(Cl)cccc1Cl"
  MEASUREMENT_TARGET: "Solanum tuberosum"
  inhibition: "20%"
- SMILES_CODE: "O=C1/C(=C/c2coc3ccc(Br)cc3c2=O)c2ccccc2N1c1c(Cl)cccc1Cl"
  MEASUREMENT_TARGET: "Solanum tuberosum"
  inhibition: "37%"
- SMILES_CODE: "O=C1Nc2ccccc2/C1=C/c1coc2ccccc2c1=O"
  MEASUREMENT_TARGET: "Solanum tuberosum"
  inhibition: "22.4%"
- SMILES_CODE: "CC(C)c1ccc2occ(/C=C3/C(=O)N(c4c(Cl)cccc4Cl)c4ccccc43)c(=O)c2c1"
  MEASUREMENT_TARGET: "Solanum tuberosum"
  inhibition: "44.8%"

Sure, the documented inhibition for `CC1=NN(c2cccc(Cl)c2)C(=O)/C1=C/c1coc2c([N+](=O)[O-])cc(F)cc2c1=O` is 22.4%

###

- MEASUREMENT_TARGET: Prostaglandin G/H synthase 1 (Ovis aries, UniProt P05979)
- ASSAY_OVERVIEW: Inhibition of ovine COX-1 assessed as decrease in prostaglandin production using arachidonic acid as substrate incubated with enzyme for 10 mins prior to substrate challenge by enzyme immunoassay
Rule: IC50 below 600 nM gives True, anything at or above gives False.

Worked examples follow.
- SMILES_CODE: "O=C1Nc2ccccc2/C1=C/c1coc2ccccc2c1=O"
  CATEGORY: "False"
- SMILES_CODE: "O=C1Nc2ccccc2/C1=C/c1coc2ccc(Br)cc2c1=O"
  CATEGORY: "False"
- SMILES_CODE: "O=C1/C(=C/c2coc3ccc(Br)cc3c2=O)c2ccccc2N1c1c(Cl)cccc1Cl"
  CATEGORY: "False"

Enquiry: # check: IC50 < 600 nM for `CC1=NN(c2cccc(Cl)c2)C(=O)/C1=C/c1coc2c([N+](=O)[O-])cc(F)cc2c1=O`
Return: False

Enquiry: # check: IC50 < 600 nM for `O=C1/C(=C/c2coc3ccccc3c2=O)c2ccccc2N1c1c(Cl)cccc1Cl`
Return: True

Enquiry: # check: IC50 < 600 nM for `CC(C)c1ccc2occ(/C=C3/C(=O)N(c4c(Cl)cccc4Cl)c4ccccc43)c(=O)c2c1`
Return: False

###

Listed next: entries and their corresponding IC50.
- ASSAY_OVERVIEW: Inhibition of potato 5-LOX assessed as decrease in leukotriene production using arachidonic acid as substrate by enzyme immunoassay
- Design: species or system Solanum tuberosum
The answer consists of two parts: a number and, after it, its unit.

These recorded examples may help you get a feel for the data.
- SMILES_CODE: "O=C1/C(=C/c2coc3ccc(Br)cc3c2=O)c2ccccc2N1c1c(Cl)cccc1Cl"
  IC50: "10 µM"
- SMILES_CODE: "CC(C)c1ccc2occ(/C=C3/C(=O)N(c4c(Cl)cccc4Cl)c4ccccc43)c(=O)c2c1"
  IC50: "0.02 µM"

For the next question, use this compound.
Sure, the documented IC50 for `CC1=NN(c2cccc(Cl)c2)C(=O)/C1=C/c1coc2c([N+](=O)[O-])cc(F)cc2c1=O` is 7.4 µM

###

Listed next: entries and their corresponding inhibition.
- MEASUREMENT_TARGET: Prostaglandin G/H synthase 1 (Ovis aries)
- Sequence (whole entry): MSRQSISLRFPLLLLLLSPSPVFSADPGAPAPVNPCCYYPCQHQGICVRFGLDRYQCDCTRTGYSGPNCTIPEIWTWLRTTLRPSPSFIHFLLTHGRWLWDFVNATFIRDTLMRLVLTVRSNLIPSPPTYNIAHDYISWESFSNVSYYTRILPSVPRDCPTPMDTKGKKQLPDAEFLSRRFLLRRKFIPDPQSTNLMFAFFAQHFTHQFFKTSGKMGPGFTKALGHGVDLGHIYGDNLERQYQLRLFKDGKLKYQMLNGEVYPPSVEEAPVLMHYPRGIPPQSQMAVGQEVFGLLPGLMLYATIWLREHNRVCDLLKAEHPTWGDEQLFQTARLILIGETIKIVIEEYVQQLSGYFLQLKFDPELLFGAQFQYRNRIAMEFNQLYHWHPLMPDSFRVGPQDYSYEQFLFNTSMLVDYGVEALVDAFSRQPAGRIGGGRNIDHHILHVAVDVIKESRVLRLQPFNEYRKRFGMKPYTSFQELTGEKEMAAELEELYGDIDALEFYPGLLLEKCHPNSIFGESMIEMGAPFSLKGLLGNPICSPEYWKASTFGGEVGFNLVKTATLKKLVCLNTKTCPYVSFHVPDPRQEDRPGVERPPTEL
- ASSAY_OVERVIEW: Inhibition of ovine COX-1 assessed as decrease in prostaglandin production using arachidonic acid as substrate at 1 uM incubated with enzyme for 10 mins prior to substrate challenge by enzyme immunoassay
Respond with the bare value in %.

These recorded examples may help you get a feel for the data.
- SMILES_CODE: "CC1=NN(c2cccc(Cl)c2)C(=O)/C1=C/c1coc2c([N+](=O)[O-])cc(F)cc2c1=O"
  inhibition [%]: 18
- SMILES_CODE: "CC(C)c1ccc2occ(/C=C3/C(=O)N(c4c(Cl)cccc4Cl)c4ccccc43)c(=O)c2c1"
  inhibition [%]: 56
- SMILES_CODE: "O=C1/C(=C/c2coc3ccccc3c2=O)c2ccccc2N1c1c(Cl)cccc1Cl"
  inhibition [%]: 75
- SMILES_CODE: "O=C1/C(=C/c2coc3ccc(Br)cc3c2=O)c2ccccc2N1c1c(Cl)cccc1Cl"
  inhibition [%]: 60
- SMILES_CODE: "O=C1Nc2ccccc2/C1=C/c1coc2ccc(Br)cc2c1=O"
  inhibition [%]: 30.4

For the next question, use this compound.
Sure, the documented inhibition for `O=C1Nc2ccccc2/C1=C/c1coc2ccccc2c1=O` is 43

###

- MEASUREMENT_TARGET: Prostaglandin G/H synthase 1 (Ovis aries) (UniProt P05979)
- Sequence (whole entry): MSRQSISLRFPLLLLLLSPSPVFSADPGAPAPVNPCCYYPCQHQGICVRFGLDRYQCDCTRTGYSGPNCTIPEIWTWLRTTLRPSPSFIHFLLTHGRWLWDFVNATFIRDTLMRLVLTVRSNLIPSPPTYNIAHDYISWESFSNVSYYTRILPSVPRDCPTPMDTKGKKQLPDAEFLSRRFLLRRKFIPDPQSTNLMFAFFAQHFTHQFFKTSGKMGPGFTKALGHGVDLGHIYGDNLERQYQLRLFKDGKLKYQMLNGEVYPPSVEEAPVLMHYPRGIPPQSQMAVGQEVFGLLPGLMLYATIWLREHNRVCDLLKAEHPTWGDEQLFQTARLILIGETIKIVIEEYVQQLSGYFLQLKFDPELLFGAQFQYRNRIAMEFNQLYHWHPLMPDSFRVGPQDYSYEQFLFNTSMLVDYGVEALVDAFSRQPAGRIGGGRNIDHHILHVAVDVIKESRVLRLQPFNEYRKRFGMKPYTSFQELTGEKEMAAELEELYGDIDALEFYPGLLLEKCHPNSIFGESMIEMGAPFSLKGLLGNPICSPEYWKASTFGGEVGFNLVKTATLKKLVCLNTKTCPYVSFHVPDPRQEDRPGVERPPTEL
- ASSAY_OVERVIEW: Inhibition of ovine COX-1 assessed as decrease in prostaglandin production using arachidonic acid as substrate at 0.1 uM incubated with enzyme for 10 mins prior to substrate challenge by enzyme immunoassay
Listed next: entries and their corresponding inhibition.

These recorded examples may help you get a feel for the data.
- SMILES_CODE: "CC(C)c1ccc2occ(/C=C3/C(=O)N(c4c(Cl)cccc4Cl)c4ccccc43)c(=O)c2c1"
  MEASUREMENT_TARGET: "Prostaglandin G/H synthase 1 (Ovis aries) (UniProt P05979)"
  inhibition: "47%"
- SMILES_CODE: "O=C1Nc2ccccc2/C1=C/c1coc2ccc(Br)cc2c1=O"
  MEASUREMENT_TARGET: "Prostaglandin G/H synthase 1 (Ovis aries) (UniProt P05979)"
  inhibition: "20%"
- SMILES_CODE: "O=C1/C(=C/c2coc3ccccc3c2=O)c2ccccc2N1c1c(Cl)cccc1Cl"
  MEASUREMENT_TARGET: "Prostaglandin G/H synthase 1 (Ovis aries) (UniProt P05979)"
  inhibition: "63%"
- SMILES_CODE: "O=C1Nc2ccccc2/C1=C/c1coc2ccccc2c1=O"
  MEASUREMENT_TARGET: "Prostaglandin G/H synthase 1 (Ovis aries) (UniProt P05979)"
  inhibition: "35%"

Sure, the documented inhibition for `CC1=NN(c2cccc(Cl)c2)C(=O)/C1=C/c1coc2c([N+](=O)[O-])cc(F)cc2c1=O` is 15%

Sure, the documented inhibition for `O=C1/C(=C/c2coc3ccc(Br)cc3c2=O)c2ccccc2N1c1c(Cl)cccc1Cl` is 44.4%
